I'd be grateful if you could share measured Initial blood pressure for these entries.
- Test system: Rattus norvegicus
- experiment: Hypotensive activity was determined in Spontaneously hypertensive rats (SHR) and initial blood pressure was determined at 10 mg/kg oral dose
- Format: functional
Supply the numeric figure in mmHg, leaving out any unit text.

Look up Initial blood pressure for this molecule: CCc1cc2cc(OCC(=O)O)c(Cl)c(Cl)c2s1
185

// next record CC(C)c1cc2cc(OCC(=O)O)c(Cl)c(Cl)c2s1
178

Can you check Cc1cc2cc(OCC(=O)O)c(Cl)c(Cl)c2s1 next?
196

CCCCc1cc2cc(OCC(=O)O)c(Cl)c(Cl)c2s1 ?
171

* * *

- Tested on: Rattus norvegicus
- experiment: Hypotensive activity was determined in Spontaneously hypertensive rats (SHR) and peak decrease in systolic blood pressure on third day,2h post administration of 30 mg/kg oral dose was determined
- Format: functional, Artery
Can you tell me Change in BP for the items I'm about to list?
Report as a plain number; the unit mmHg is understood.

Could you tell me which Change in BP is on file for CCCCc1cc2cc(OCC(=O)O)c(Cl)c(Cl)c2s1 ?
-16

Ok, now CC(C)c1cc2cc(OCC(=O)O)c(Cl)c(Cl)c2s1
-32

O=C(O)COc1cc2c(c(Cl)c1Cl)S(=O)(=O)C(C1CCCCC1)=C2 , same question.
-30

For CCCC1=Cc2cc(OCC(=O)O)c(Cl)c(Cl)c2S1(=O)=O then?
-64

* * *

- Tested on: Rattus norvegicus
- experiment: Hypotensive activity was determined in Spontaneously hypertensive rats (SHR) and peak decrease in systolic blood pressure on third day,2h post administration of 50 mg/kg oral dose was determined
- Assay type: functional, Artery
Classify by measured Change in BP: satisfied if it is equal to or exceeds -20 mmHg, not satisfied if it is smaller.

# bool: Change in BP of NS(=O)(=O)c1cc2c(cc1Cl)NCNS2(=O)=O [HYDROCHLOROTHIAZIDE] >= -20 mmHg
not satisfied

Thanks! And Cc1sc2c(Cl)c(Cl)c(OCC(=O)O)cc2c1C ?
not satisfied

Queued: CC1=Cc2cc(OCC(=O)O)c(Cl)c(Cl)c2S1(=O)=O
not satisfied

Can you handle O=C(O)COc1ccc(C(=O)c2cccs2)c(Cl)c1Cl next?
satisfied

Also O=C(O)COc1cc2c3c(sc2c(Cl)c1Cl)CCCC3 , if possible.
satisfied

Now try O=C(O)COc1cc2cc(C3CCCCC3)sc2c(Cl)c1Cl .
satisfied

Similarly, CC(C)c1cc2cc(OCC(=O)O)c(Cl)c(Cl)c2s1 ?
not satisfied

Would you kindly repeat that for O=C(O)COc1cc2cc(C3CCCC3)sc2c(Cl)c1Cl ?
not satisfied

Then what about the molecule CCC(=O)c1cc2cc(OCC(=O)O)c(Cl)c(Cl)c2s1 ?
satisfied

Also CCCCC1=Cc2cc(OCC(=O)O)c(Cl)c(Cl)c2S1(=O)=O ?
not satisfied

Do the same for O=C(O)COc1cc2c(c(Cl)c1Cl)S(=O)(=O)C=C2 please
satisfied

Same lookup for CC1=C(C)S(=O)(=O)c2c1cc(OCC(=O)O)c(Cl)c2Cl , please.
satisfied

Then what about the molecule CC(C)Cc1cc2cc(OCC(=O)O)c(Cl)c(Cl)c2s1 ?
satisfied

Can you check CCC(O)c1cc2cc(OCC(=O)O)c(Cl)c(Cl)c2s1 (centres undefined) next?
not satisfied

Can you check O=C(O)COc1cc2c(c(Cl)c1Cl)S(=O)(=O)C(C1CCCCC1)=C2 next?
not satisfied

Same read-out for CCCc1cc2cc(OCC(=O)O)c(Cl)c(Cl)c2s1 ?
satisfied

Consider next the molecule CC(O)C1=Cc2cc(OCC(=O)O)c(Cl)c(Cl)c2S1(=O)=O (centres undefined) in the same way.
satisfied

// next record Cc1csc2c(Cl)c(Cl)c(OCC(=O)O)cc12
satisfied

Consider next the molecule CC(C)(O)c1cc2cc(OCC(=O)O)c(Cl)c(Cl)c2s1 in the same way.
not satisfied

Now try CC(O)c1cc2cc(OCC(=O)O)c(Cl)c(Cl)c2s1 (centres undefined) .
satisfied

Also, CC(C)C1=Cc2cc(OCC(=O)O)c(Cl)c(Cl)c2S1(=O)=O please.
not satisfied

What about O=C(O)COc1cc2ccsc2c(Cl)c1Cl ?
satisfied

Please answer likewise for CCCCc1cc2cc(OCC(=O)O)c(Cl)c(Cl)c2s1
not satisfied

Please give the result for CC(C)CC1=Cc2cc(OCC(=O)O)c(Cl)c(Cl)c2S1(=O)=O too.
satisfied

* * *

For each entry below, report its mequiv of Na+/kg value.
- Test system: Mus musculus
- experiment: Diuretic activity in saline loaded mice, activity is expressed as the sodium present in urine as mean milli equivalent/kg per 5 hr at 64 mg/kg oral dose
- Format: functional

Suppose we examine the compound CC(O)c1cc2cc(OCC(=O)O)c(Cl)c(Cl)c2s1 (configuration not stated) ; what mequiv of Na+/kg value has been reported?
2.86 0-5h

Now consider CC(C)c1cc2cc(OCC(=O)O)c(Cl)c(Cl)c2s1 and answer again.
2.52 0-5h

Try the compound C=C(CC)C(=O)c1ccc(OCC(=O)O)c(Cl)c1Cl [ETHACRYNIC ACID]
4.14 0-5h

Please do the same for CCCCC1=Cc2cc(OCC(=O)O)c(Cl)c(Cl)c2S1(=O)=O as well.
2.42 0-5h

Try O=C(O)COc1cc2cc(C3CCCC3)sc2c(Cl)c1Cl next.
1.3 0-5h

Param item: CC(C)C1=Cc2cc(OCC(=O)O)c(Cl)c(Cl)c2S1(=O)=O
2.58 0-5h

Further, for O=C(O)COc1cc2ccsc2c(Cl)c1Cl ?
1 0-5h

Same thing, different compound: CC(O)C1=Cc2cc(OCC(=O)O)c(Cl)c(Cl)c2S1(=O)=O (configuration not stated)
0.43 0-5h

Then this compound: O=C(O)COc1cc2cc(CO)sc2c(Cl)c1Cl
1.23 0-5h

Same for CCC(=O)c1cc2cc(OCC(=O)O)c(Cl)c(Cl)c2s1
1.18 0-5h

Next compound: CC(C)(O)c1cc2cc(OCC(=O)O)c(Cl)c(Cl)c2s1
4.4 0-5h

Ok, now O=C(O)COc1cc2cc(C3CCCCC3)sc2c(Cl)c1Cl
1.6 0-5h

* * *

- Tested on: Mus musculus
- experiment: Diuretic activity in saline loaded mice, activity is expressed as the sodium present in urine as mean milli equivalent/kg per 5 hr at 64 mg/kg oral dose
- Type: functional
property: mequiv of Na+/kg

Quick one: mequiv of Na+/kg of CC(C)CC1=Cc2cc(OCC(=O)O)c(Cl)c(Cl)c2S1(=O)=O ?
3.24 0-5h

Please do the same for O=C(O)COc1cc2c(c(Cl)c1Cl)S(=O)(=O)C(C1CCCC1)=C2 as well.
1.79 0-5h

Let us now turn to O=C(O)COc1cc2c(c(Cl)c1Cl)S(=O)(=O)C1=C2CCCC1
0 0-5h

Request: CC1=C(C)S(=O)(=O)c2c1cc(OCC(=O)O)c(Cl)c2Cl
0.92 0-5h

Then this compound: Cc1csc2c(Cl)c(Cl)c(OCC(=O)O)cc12
0.8 0-5h

What about this compound? CCC1=Cc2cc(OCC(=O)O)c(Cl)c(Cl)c2S1(=O)=O
3.35 0-5h

* * *

- System: Rattus norvegicus
- experiment: Hypotensive activity was determined in Spontaneously hypertensive rats (SHR) and peak decrease in systolic blood pressure on third day,2h post administration of 50 mg/kg oral dose was determined
- Format: functional, Artery
# if value of Change in BP reaches -8 mmHg, tag met; if it stays below, tag not met

Record Cc1cc2cc(OCC(=O)O)c(Cl)c(Cl)c2s1 ; criterion: Change in BP no lower than -8 mmHg. Met?
not met

Then this molecule: O=C(O)COc1cc2cc(CO)sc2c(Cl)c1Cl
met

Now the same for O=C(O)COc1cc2c(c(Cl)c1Cl)S(=O)(=O)C(C1CCCC1)=C2
not met

Param item: CC(=O)c1cc2cc(OCC(=O)O)c(Cl)c(Cl)c2s1
not met

* * *

- Test system: Mus musculus
- experiment: Compound was tested for diuretic activity in saline loaded mice, activity is expressed as the sodium present in urine as mean milli equivalent/kg per 5 hr at 32 mg/kg oral dose
- Format: functional
property: mequiv of Na+/kg

Please tell me: mequiv of Na+/kg of CC(C)(O)c1cc2cc(OCC(=O)O)c(Cl)c(Cl)c2s1 , system Mus musculus?
2.21 0-5h

Lookup CC(C)c1cc2cc(OCC(=O)O)c(Cl)c(Cl)c2s1
1.64 0-5h

Quick one: CCCC1=Cc2cc(OCC(=O)O)c(Cl)c(Cl)c2S1(=O)=O
1.79 0-5h

Okay, and CCC1=Cc2cc(OCC(=O)O)c(Cl)c(Cl)c2S1(=O)=O ?
1.84 0-5h

Now give it for CCc1cc2cc(OCC(=O)O)c(Cl)c(Cl)c2s1 too.
1.51 0-5h

Now consider CC1=Cc2cc(OCC(=O)O)c(Cl)c(Cl)c2S1(=O)=O and answer again.
2.11 0-5h

Entry CC(C)C1=Cc2cc(OCC(=O)O)c(Cl)c(Cl)c2S1(=O)=O please
0.88 0-5h
